biological target: FLT3 kinase (Homo sapiens (Human)); experiment: In vitro FLT3 kinase HTRF assay (Example 2); type: biochemical; settings: Table 2; HTRF
Sequence (P36888 610-943): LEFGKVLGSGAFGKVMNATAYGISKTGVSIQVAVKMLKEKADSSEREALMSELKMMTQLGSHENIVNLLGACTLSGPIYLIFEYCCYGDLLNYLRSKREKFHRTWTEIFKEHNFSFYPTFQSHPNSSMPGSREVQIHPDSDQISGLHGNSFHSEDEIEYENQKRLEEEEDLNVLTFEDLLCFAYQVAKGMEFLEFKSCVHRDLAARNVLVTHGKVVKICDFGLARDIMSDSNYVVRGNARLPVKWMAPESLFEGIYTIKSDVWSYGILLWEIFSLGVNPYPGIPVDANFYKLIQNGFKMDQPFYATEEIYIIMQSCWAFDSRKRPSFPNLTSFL
Where a name gives a salt, the structure may show the parent alone.
RECORDED_ENDPOINT: IC50
Mention the unit after the number when you answer.

## Task Suppose we examine the molecule O=C1Nc2ccc(F)cc2/C1=C1/Nc2ccc(F)cc2/C1=N\OCCN1CCOCC1 [Compound 27, hydrochloride] ; what IC50 value has been reported?
## Result 939 nM

## Task Suppose we examine the molecule O=C1Nc2ccc([N+](=O)[O-])cc2/C1=C1/Nc2ccc(O)cc2/C1=N\O [Compound 13] ; what IC50 value has been reported?
## Result 23.4 nM

Please find the next molecule below.
## Task Suppose we examine the molecule CN1CCN(CCO/N=C2/C(=C3/C(=O)Nc4ccc(Br)cc43)Nc3ccccc32)CC1 [Compound 41, dihydrochloride] ; what IC50 value has been reported?
## Result 4.8 nM

###

tested on: MDA-MB-231; assay: Cell viability, EZ-Cytox tetrazolium assay, MDA-MB-231; assay type: cell-based, human; details: Homo sapiens, MDA-MB-231; 72 hours
Where a name gives a salt, the structure may show the parent alone.
Measured GI50 of individual entries

Solved entries (count: 2):
## Task Suppose we examine the compound O=C1Nc2ccc(F)cc2/C1=C1/Nc2ccc(F)cc2/C1=N\OCCN1CCCCC1 [Compound 23, hydrochloride] ; what GI50 value has been reported?
## Result > 1 nM

## Task Suppose we examine the compound O=C1Nc2ccc(F)cc2/C1=C1/Nc2ccc(F)cc2/C1=N\OCCN1CCOCC1 [Compound 27, hydrochloride] ; what GI50 value has been reported?
## Result > 10 nM

---
## Task Suppose we examine the compound NCCO/N=C1/C(=C2/C(=O)Nc3ccc([N+](=O)[O-])cc32)Nc2ccccc21 [Compound 15, hydrochloride] ; what GI50 value has been reported?
## Result > 1 nM
